I'd be grateful if you could share measured IC50 for these entries.
Target Under Test: human Nav1.8/b3 (Homo sapiens, UniProt Q9Y5Y9)
Construct: expressed in transfected cells; host or cells: CHO
Sequence (Q9Y5Y9 whole entry): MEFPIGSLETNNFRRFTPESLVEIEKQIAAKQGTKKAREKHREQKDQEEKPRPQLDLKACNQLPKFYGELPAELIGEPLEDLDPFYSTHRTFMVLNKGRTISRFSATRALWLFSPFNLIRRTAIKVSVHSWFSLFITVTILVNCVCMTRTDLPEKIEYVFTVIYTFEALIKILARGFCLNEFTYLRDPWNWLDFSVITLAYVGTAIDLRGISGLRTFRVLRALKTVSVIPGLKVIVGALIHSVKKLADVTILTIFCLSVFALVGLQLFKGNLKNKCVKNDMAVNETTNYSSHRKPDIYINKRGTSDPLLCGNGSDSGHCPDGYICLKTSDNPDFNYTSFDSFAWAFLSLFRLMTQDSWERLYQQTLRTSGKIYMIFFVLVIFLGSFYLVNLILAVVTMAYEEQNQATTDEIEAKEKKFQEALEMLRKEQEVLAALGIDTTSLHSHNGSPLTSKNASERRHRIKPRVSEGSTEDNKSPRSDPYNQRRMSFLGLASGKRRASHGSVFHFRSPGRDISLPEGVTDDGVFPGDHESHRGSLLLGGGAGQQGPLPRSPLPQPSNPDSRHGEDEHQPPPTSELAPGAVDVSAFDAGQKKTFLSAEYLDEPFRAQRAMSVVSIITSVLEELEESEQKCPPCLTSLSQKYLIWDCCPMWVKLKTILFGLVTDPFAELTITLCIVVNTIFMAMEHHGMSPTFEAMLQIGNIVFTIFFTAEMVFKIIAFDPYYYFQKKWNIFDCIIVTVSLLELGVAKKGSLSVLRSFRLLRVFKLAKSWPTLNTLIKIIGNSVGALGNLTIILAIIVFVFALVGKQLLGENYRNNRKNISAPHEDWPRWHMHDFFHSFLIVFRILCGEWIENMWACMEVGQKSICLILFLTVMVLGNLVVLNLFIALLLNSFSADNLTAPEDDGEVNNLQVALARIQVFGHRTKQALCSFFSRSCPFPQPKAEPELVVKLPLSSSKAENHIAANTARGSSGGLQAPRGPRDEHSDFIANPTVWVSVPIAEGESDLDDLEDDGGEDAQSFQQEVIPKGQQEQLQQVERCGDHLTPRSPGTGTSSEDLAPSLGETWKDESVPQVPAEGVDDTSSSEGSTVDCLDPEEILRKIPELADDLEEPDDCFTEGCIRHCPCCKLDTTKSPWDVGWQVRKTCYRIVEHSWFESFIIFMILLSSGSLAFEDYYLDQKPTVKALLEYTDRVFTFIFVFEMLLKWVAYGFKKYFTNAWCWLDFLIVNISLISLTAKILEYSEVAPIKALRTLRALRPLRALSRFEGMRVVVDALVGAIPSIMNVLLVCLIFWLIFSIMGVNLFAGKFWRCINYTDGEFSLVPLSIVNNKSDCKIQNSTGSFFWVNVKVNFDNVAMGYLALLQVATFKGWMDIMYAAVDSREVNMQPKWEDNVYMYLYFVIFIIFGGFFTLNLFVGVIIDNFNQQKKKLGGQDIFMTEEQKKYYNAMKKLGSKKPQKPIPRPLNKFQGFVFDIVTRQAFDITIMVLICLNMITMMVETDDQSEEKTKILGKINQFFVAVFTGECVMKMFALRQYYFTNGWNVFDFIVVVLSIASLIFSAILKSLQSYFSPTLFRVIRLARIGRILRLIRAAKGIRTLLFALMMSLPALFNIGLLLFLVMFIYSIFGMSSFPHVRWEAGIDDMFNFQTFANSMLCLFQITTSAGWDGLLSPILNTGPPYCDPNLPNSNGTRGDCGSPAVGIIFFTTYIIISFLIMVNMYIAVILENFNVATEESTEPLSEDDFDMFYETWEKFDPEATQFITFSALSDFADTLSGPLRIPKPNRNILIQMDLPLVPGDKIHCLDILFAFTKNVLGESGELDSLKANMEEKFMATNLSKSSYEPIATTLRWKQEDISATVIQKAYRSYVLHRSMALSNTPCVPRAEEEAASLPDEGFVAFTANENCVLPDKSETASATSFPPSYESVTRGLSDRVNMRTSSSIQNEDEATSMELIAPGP
Sequence (Q9NY72 23-215 partner): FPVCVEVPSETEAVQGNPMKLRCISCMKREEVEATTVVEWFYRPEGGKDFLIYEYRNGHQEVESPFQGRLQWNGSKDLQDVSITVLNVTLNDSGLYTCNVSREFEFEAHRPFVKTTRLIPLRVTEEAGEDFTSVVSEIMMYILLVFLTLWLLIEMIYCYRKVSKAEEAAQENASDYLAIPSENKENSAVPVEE
Assay Notes: Compound Profiling Human NaV1.8/β3 Cell Line—SyncroPatch384PE Assay (automated patch clamp, stably transfected CHO cells)
Type: cell-based
Conditions: P1 (IC50, resting state block), P1 measurement, resting state block; Nav1.8/b3 CHO cells, holding potential −120 mV; second set of compounds

Cc1nc(F)ccc1Oc1cc(C(F)(F)F)c(Cl)cc1C(=O)Nc1cccc([S@@](C)(=O)=NC(=O)C2(N)CCC2)c1    < 5 nM
Cc1nc(F)ccc1Oc1ccc(C(F)(F)F)c(C)c1C(=O)Nc1cccc([S@@](C)(=O)=NC(=O)[C@H](C)O)c1 [Example 23B]    < 5 nM

// each listed compound needs a value for IC50
1. Cc1nc(F)ccc1Oc1cc(C(F)(F)F)c(Cl)cc1C(=O)Nc1cccc([S@@](C)(=O)=NC(=O)CN)c1
2. Cc1nc(F)ccc1Oc1cc(C(F)(F)F)c(Cl)cc1C(=O)Nc1cccc([S@@](C)(=O)=NC(=O)C(C)(C)N)c1
3. Cc1nc(F)ccc1Oc1ccc(C(F)(F)F)c(C)c1C(=O)Nc1cccc([S@@](C)(=O)=NC(=O)CN)c1 [Example 26B]
4. Cc1nc(F)ccc1Oc1cc(C(F)(F)F)c(Cl)cc1C(=O)Nc1cccc([S@@](C)(=O)=NC(=O)[C@@H](C)N)c1
5. Cc1nc(F)ccc1Oc1cc(C(F)(F)F)ccc1C(=O)Nc1cccc([S@@](C)(=O)=NC(=O)CO)c1 [Example 11B]
6. Cc1nc(F)ccc1Oc1ccc(C(F)(F)F)c(C)c1C(=O)Nc1cccc([S@@](C)(=O)=NC(=O)[C@@H](C)O)c1 [Example 28B]

Result:
< 5 nM
< 5 nM
< 5 nM
< 5 nM
5 to 50 nM
< 5 nM

// each listed compound needs a value for IC50
1. Cc1nc(F)ccc1Oc1ccc(C(F)(F)F)c(F)c1C(=O)Nc1cccc([S@@](C)(=O)=NC(=O)[C@H](C)O)c1 [Example 18B]
2. CNCC(=O)N=[S@](C)(=O)c1cccc(NC(=O)c2ccc(C(F)(F)F)cc2Oc2ccc(F)nc2C)c1 [Example 10B]
3. Cc1nc(F)ccc1Oc1cc(C(F)(F)F)ccc1C(=O)Nc1cccc([S@@](C)(=O)=NC(=O)[C@H](C)O)c1 [Example 12B]
4. CNCC(=O)N=[S@](C)(=O)c1cccc(NC(=O)c2cc(Cl)c(C(F)(F)F)cc2Oc2ccc(F)nc2C)c1 [Example 29B]
5. Cc1nc(F)ccc1Oc1ccc(C(F)(F)F)c(C)c1C(=O)Nc1cccc([S@@](C)(=O)=NC(=O)[C@@H](C)N)c1 [Example 24B]

Result:
1: < 5 nM; 2: 5 to 50 nM; 3: 5 to 50 nM; 4: < 5 nM; 5: < 5 nM

====

Target Under Test: human Nav1.8/b3 (Homo sapiens)
Construct: expressed in transfected cells; host or cells: CHO
Assay Notes: Compound Profiling Human NaV1.8/β3 Cell Line—SyncroPatch384PE Assay (automated patch clamp, stably transfected CHO cells)
Type: cell-based
Conditions: P2 measurement, inactivated state block; Nav1.8/b3 CHO cells, inactivation step −35 mV 10 sec; first set of compounds; read-out: P2 (IC50, inactivated state block)
I'd be grateful if you could share measured IC50 for these entries.

These recorded examples may help you get a feel for the data.
[2H]C([2H])([2H])c1nc(F)ccc1Oc1cc(C(F)(F)F)c(Cl)cc1C(=O)Nc1ccnc([S@](C)(=N)=O)c1 [Example 13A]    < 5 nM
C[S@@](=N)(=O)c1cc(NC(=O)c2cc(Cl)c(C(F)(F)F)cc2OCC(F)(F)F)ccn1 [Example 35A]    50 to 100 nM

Please look at the following molecule next.
Query: Query for human Nav1.8/b3 (Homo sapiens): what IC50 does the record show for `Cc1nc(F)ccc1Oc1cc(C2CC2)c(C(F)(F)F)c(C)c1C(=O)Nc1cccc([S@](C)(=N)=O)c1` ?
Result: < 5 nM

====

Target Under Test: human Nav1.8/β1 (Homo sapiens)
Construct: host or cells: HEK293
Sequence (Q07699 19-218 partner, one chain of several): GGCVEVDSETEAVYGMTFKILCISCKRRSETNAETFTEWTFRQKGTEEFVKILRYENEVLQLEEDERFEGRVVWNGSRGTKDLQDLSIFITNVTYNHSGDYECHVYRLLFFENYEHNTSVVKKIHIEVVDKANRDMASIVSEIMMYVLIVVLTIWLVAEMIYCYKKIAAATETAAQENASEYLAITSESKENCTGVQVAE
Assay Notes: Compound Profiling Human NaV1.8/β1 Cell Line—Sophion QPatch II Assay (automated patch clamp, stably transfected HEK293 cells)
Assay type: cell-based
Assay Metric: IC50

// each listed compound needs a value for IC50
1. Cc1nc(F)ccc1Oc1ncc(C(F)(F)F)c(C)c1C(=O)Nc1cncc([S@](C)(=N)=O)c1 [Example 61C]
2. CNC(C)(C)CS(=N)(=O)c1cccc(NC(=O)c2c(Oc3ccc(F)nc3C)ncc(C(F)(F)F)c2C)c1 (centres unmarked) [Example 51C]
3. Cc1nc(F)ccc1Oc1ncc(C(F)(F)F)c(C)c1C(=O)Nc1cccc([S@](=N)(=O)CCCN(C)C)c1 [Example 73C]
4. Cc1nc(F)ccc1Oc1ccc(C(F)(F)F)c(Cl)c1C(=O)Nc1ccnc([S@](C)(=N)=O)c1 [Example 32A]
5. Cc1nc(F)ccc1Oc1ncc(C(F)(F)F)c(C)c1C(=O)Nc1cccc([S@@](=N)(=O)CCN(C)C)c1 [Example 75C]

Result:
1: 100 to 200 nM; 2: 5 to 50 nM; 3: 5 to 50 nM; 4: 5 to 50 nM; 5: 5 to 50 nM

// each listed compound needs a value for IC50
1. Cc1nc(F)ccc1Oc1cc(C(F)(F)F)ccc1C(=O)Nc1ccc(F)c([S@@](C)(=N)=O)c1 [Example 29A]
2. COc1cc(C#N)ccc1Oc1ncc(C(F)(F)F)c(C)c1C(=O)Nc1cccc(S(=N)(=O)CCCN(C)C)c1 (centres unmarked) [Example 59C]
3. Cc1nc(F)ccc1Oc1ncc(C(F)(F)F)c(C)c1C(=O)Nc1cccc(S(=N)(=O)CC(C)(C)N)c1 (centres unmarked) [Example 53C]
4. Cc1nc(F)ccc1Oc1nc(C(F)(F)F)c(Cl)cc1C(=O)Nc1ccnc([S@](C)(=N)=O)c1 [Example 81C]
5. Cc1nc(F)ccc1Oc1ncc(C(F)(F)F)c(C)c1C(=O)Nc1cccc(S(=N)(=O)CCC(C)(C)N)c1 (centres unmarked) [Example 52C]
6. Cc1nc(F)ccc1Oc1ncc(C(F)(F)F)c(C)c1C(=O)Nc1cc(S(C)(=N)=O)ccn1 (centres unmarked) [Example 63C]
7. Cc1nc(F)ccc1Oc1cc(C(F)(F)F)c(Cl)cc1C(=O)Nc1ccnc(S(C)(=O)=O)c1 [Example 17A]
8. Cc1nc(F)ccc1Oc1ncc(C(F)(F)F)c(C)c1C(=O)Nc1cccc([S@](=N)(=O)CCN(C)C)c1 [Example 76C]

Result:
1: > 200 nM; 2: 5 to 50 nM; 3: 5 to 50 nM; 4: > 200 nM; 5: 5 to 50 nM; 6: > 200 nM; 7: 5 to 50 nM; 8: 5 to 50 nM

// each listed compound needs a value for IC50
1. Cc1cc(F)ncc1Oc1cc(C(F)(F)F)c(Cl)cc1C(=O)Nc1ccc(F)c([S@](C)(=N)=O)c1 [Example 24A]
2. Cc1nc(F)ccc1Oc1ncc(C(F)(F)F)c(C)c1C(=O)Nc1cccc([S@](=N)(=O)CCCO)c1 [Example 69C]

Result:
100 to 200 nM
100 to 200 nM

====

I'd be grateful if you could share measured IC50 for these entries.
Target Under Test: human Nav1.8/b3 (Homo sapiens)
Construct: expressed in transfected cells; host or cells: CHO
Assay Notes: Compound Profiling Human NaV1.8/β3 Cell Line—SyncroPatch384PE Assay (automated patch clamp, stably transfected CHO cells)
Type: cell-based
Conditions: P1 (IC50, resting state block), P1 measurement, resting state block; Nav1.8/b3 CHO cells, holding potential −120 mV; third set of compounds

These recorded examples may help you get a feel for the data.
Cc1ccc(Oc2ncc(C(F)(F)F)c(C)c2C(=O)Nc2cccc([S@@](C)(=N)=O)c2)c(F)n1 [Example 121C]    0.05 to 0.1 µM
Cc1nc(F)ccc1Oc1ncc(C(F)(F)F)c(C)c1C(=O)Nc1cccc([S@@](C)(=O)=NCCN(C)C)c1 [Example 91C]    < 0.005 µM

// each listed compound needs a value for IC50
1. COc1cc(C#N)ccc1Oc1ncc(C(F)(F)F)c(C)c1C(=O)Nc1cccc(S(N)(=O)=O)c1 [Example 28C]
2. Cc1nc(F)ccc1Oc1ncc(-c2ccc(C(F)F)cc2)c(C)c1C(=O)Nc1cccc([S@](C)(=N)=O)c1 [Example 2C]
3. Cc1nc(F)ccc1Oc1ncc(C2CCC2)c(C)c1C(=O)Nc1ccnc([S@](C)(=N)=O)c1 [Example 98C]
4. COc1cc(C#N)ccc1Oc1ncc(-c2cn(C)nc2C)c(C)c1C(=O)Nc1cccc([S@](C)(=N)=O)c1 [Example 27C]

Result:
< 0.005 µM
0.005 to 0.05 µM
0.005 to 0.05 µM
0.05 to 0.1 µM

Query: Any idea what IC50 was measured for Cc1nc(F)ccc1Oc1ncc(C(F)(F)F)c(C)c1C(=O)NC12CC(C(N)=O)(C1)C2 [Example 112C] ?
Result: > 0.2 µM
